# System: E. coli SR09616
# Experiment Notes: MIC by microbroth dilution (CLSI), strain No. 7
# Type: cell-based
# Condition Summary: Escherichia coli, SR09616, read-out: minimum inhibitory concentration (MIC), Strain No. 7
# Protocol: The minimum inhibitory concentration (MIC) was measured by the microbroth dilution method in accordance with the procedures recommended by CLSI (Clinical and Laboratory Standards Institute) using 1×10^5 CFU/mL as an inoculum dose and a cation-adjusted Mueller-Hinton broth as a test medium. The strains used are as described in the table below.
Give MIC for every item shown.
Just the number please, in mg/L, no unit attached.

Field: MIC (E. coli SR09616). Entry: CONC(=O)CO/N=C(\C(=O)N[C@@H]1C(=O)N2[C@@H]1[S+](O)C[C@@H]1CC(=O)O[C@@]12C(=O)O)c1csc(N)n1 (stereo partly drawn) 0.5

NCCO/N=C(\C(=O)N[C@@H]1C(=O)N2[C@@H]1[S@@+]([O-])C[C@@H]1CC(=O)O[C@@]12C(=O)O)c1csc(N)n1 ? 4

Try C[n+]1ccc(CO/N=C(\C(=O)N[C@@H]2C(=O)N3[C@@H]2[S@@+]([O-])C[C@@H]2CC(=O)O[C@@]23C(=O)[O-])c2csc(N)n2)cc1 next. 2

And for NC(=O)NCCO/N=C(\C(=O)N[C@@H]1C(=O)N2[C@@H]1[S@@+]([O-])C[C@@H]1CC(=O)O[C@@]12C(=O)O)c1csc(N)n1 ? 2

Further, for Nc1nc(/C(=N/OCc2cccnc2)C(=O)N[C@@H]2C(=O)N3[C@@H]2[S@@+]([O-])C[C@@H]2CC(=O)O[C@@]23C(=O)O)cs1 ? 4

Same for Nc1nc(/C(=N/OC[C@@H](O)CO)C(=O)N[C@@H]2C(=O)N3[C@@H]2[S@@+]([O-])C[C@@H]2CC(=O)O[C@@]23C(=O)O)cs1 1

* * *

# Test system: K. pneumoniae NCTC13443
# Experiment Notes: MIC by microbroth dilution (CLSI), strain No. 4
# Format: cell-based
# Condition Summary: K. pneumoniae NCTC13443, NDM-1; MBL-producing strain, carbapenem-resistant; cation-adjusted Mueller-Hinton broth
Would you mind telling me the reported minimum inhibitory concentration (MIC), Strain No. 4 of each entry?
// units = µg/mL; emit number, no label

Form field - read-out: minimum inhibitory concentration (MIC), Strain No. 4; system: K. pneumoniae NCTC13443; submitted item: Nc1nc(/C(=N/OCS(=O)(=O)O)C(=O)N[C@@H]2C(=O)N3[C@@H]2[S@@+](O)C[C@@H]2CC(=O)O[C@@]23C(=O)O)cs1 [Compound I-047] 2

Moving on to the next molecule: Nc1nc(/C(=N/OCC(=O)O)C(=O)N[C@@H]2C(=O)N3[C@@H]2[SH](O)C[C@@H]2CC(=O)O[C@@]23C(=O)O)c(F)s1 (stereo partly shown) [Compound I-036] 8

Try the molecule Nc1nc(/C(=N/OCCC(=O)O)C(=O)N[C@@H]2C(=O)N3[C@@H]2[S@@+]([O-])C[C@@H]2CC(=O)O[C@@]23C(=O)[O-])cs1.[Na+] [Compound I-061] 4

And Nc1nc(/C(=N/OCC(=O)NO)C(=O)N[C@@H]2C(=O)N3[C@@H]2[S+](O)C[C@@H]2CC(=O)O[C@@]23C(=O)O)cs1 (stereo partly shown) [Compound I-049] ? 2
